# Tested on: P388 leukemia ip, CD2F1 mice, survival T/C
# protocol_summary: NCI In Vivo Anticancer Drug Screen. Data for tumor model P388 Leukemia (intraperitoneal) in CD2F1 (CDF1) mice
# reported_conditions: endpoint: median survival time; dose: 50.0 mg/kg/injection; schedule: Q01DX009 (ip); vehicle: Klucel (hydroxypropylcellulose) (HPC); higher = longer survival
Toxic doses and inconclusive results are not listed.
experimental_endpoint: T/C

Example compounds with recorded T/C:
| compound | target_under_test | T/C |
| --- | --- | --- |
| Cc1cc(=O)n(C)c2ccc([N+](=O)[O-])cc12 | P388 leukemia ip, CD2F1 mice, survival T/C | 106 % of control |
| CC1(C)CC(=O)C=C(NCCCCCCNC2=CC(=O)CC(C)(C)C2)C1 | P388 leukemia ip, CD2F1 mice, survival T/C | 113 % of control |
| CCOC(=O)C(C)(/C=N/NS(=O)(=O)c1ccc(C)cc1)c1ccccc1 (stereo not given) | P388 leukemia ip, CD2F1 mice, survival T/C | 106 % of control |
| OC1C(CCl)OC(OC2(CCl)OC(CCl)C(O)C2O)C(O)C1O (stereo not given) | P388 leukemia ip, CD2F1 mice, survival T/C | 94 % of control |

Now consider a different compound.
// query Consider the compound shown here: "CCCCN(C)C12CN3CN(CN(C3)C1)C2" What is its recorded T/C?
// result 101 % of control

---

Reported T/C values for a set of compounds
# Tested on: P388 leukemia ip, CD2F1 mice, survival T/C
# protocol_summary: NCI In Vivo Anticancer Drug Screen. Data for tumor model P388 Leukemia (intraperitoneal) in CD2F1 (CDF1) mice
# reported_conditions: endpoint: median survival time; dose: 400.0 mg/kg/injection; schedule: Q04DX003 (ip); vehicle: saline with Tween-80; higher = longer survival
Toxic doses and inconclusive results are not listed.

| compound | T/C |
| --- | --- |
| CCOC(OCC)c1cccc([N+](=O)[O-])c1 | 117 % of control |
| CC(C)C1OC(/C=C/c2ccccc2)OCC1(C)C (stereo not given) | 102 % of control |
| N#Cc1cnn(C(N)=O)c1N | 100 % of control |
| N=c1nccnn1O | 100 % of control |
| CC1(C)C2=CCCC3(OCCO3)C2(C)CCC1O (stereo not given) | 90 % of control |

// query Could you share what T/C was measured for "Cc1ccc2c(c1)CN(C13CC4CC(CC(C4)C1)C3)CO2" , tested on P388 leukemia ip, CD2F1 mice, survival T/C?
// result 115 % of control

---

# Test system: P388 leukemia ip, CD2F1 mice, survival T/C
# protocol_summary: NCI In Vivo Anticancer Drug Screen. Data for tumor model P388 Leukemia (intraperitoneal) in CD2F1 (CDF1) mice
# reported_conditions: endpoint: median survival time; dose: 60.0 mg/kg/injection; schedule: Q01DX005 (ip); vehicle: saline with Tween-80; higher = longer survival
Inconclusive results and toxic doses are left out.
Here, each record is paired with measured T/C data.

| molecule | target_under_test | T/C |
| --- | --- | --- |
| COc1ccc(OC)c(N(CCN2C(=O)c3ccccc3C2=O)C(=O)C2CCC(=O)C2C)c1 (stereo not given) | P388 leukemia ip, CD2F1 mice, survival T/C | 99 % of control |
| CC(=O)N1c2ccccc2C(O)C1OC(=O)c1cccc(Cl)c1 (stereo not given) | P388 leukemia ip, CD2F1 mice, survival T/C | 100 % of control |
| COC(=O)c1nnn(-c2ccc(C)c(C)c2)c1C(=O)c1ccccc1 | P388 leukemia ip, CD2F1 mice, survival T/C | 99 % of control |
| COc1nc2c(ccn2C2OC(COC(C)=O)C(OC(C)=O)C(OC(C)=O)C2OC(C)=O)c(=O)n1C (stereo not given) | P388 leukemia ip, CD2F1 mice, survival T/C | 100 % of control |
| CN1CC(=O)NC2C(=CN(Cc3ccccc3)c3ccccc32)C1=O (stereo not given) | P388 leukemia ip, CD2F1 mice, survival T/C | 100 % of control |
| CCOC(=O)c1cn(CC)c2cc(-n3cccc3)ccc2c1=O | P388 leukemia ip, CD2F1 mice, survival T/C | 93 % of control |
| COC(=O)c1nnn(-c2ccccc2C(C)C)c1C(=O)c1ccccc1 | P388 leukemia ip, CD2F1 mice, survival T/C | 94 % of control |
| CCOC(=O)C/C(C)=C1/N=C(c2ccccc2)OC1=O | P388 leukemia ip, CD2F1 mice, survival T/C | 91 % of control |

// query For the molecule shown here, "CCOC(=O)C1=C(C(=O)c2ccc(OC)cc2)C(c2ccc(OC)c(OC)c2)C(C(=O)c2ccc(OC)cc2)=C(C(=O)OCC)N1" , give the reported T/C.
// result 90 % of control

Ref: PubChem BioAssay AID330
